Origin of values: the supplement of paper PMC11780869

# System: Bacillus subtilis
# experimental-details: cleaved RNA product abundance (RNA/gDNA barcode ratio) relative to median wild-type variant (ratio to wild type); higher = more accumulation of the downstream cleavage product
# test-context: experiment (reporter, strain, medium): exp 8a: truncated aprE reporter, strain BJT201 with 2% xylose (RNase J1 expressed); cleavage site: glnRA (positions -5 to +31 mutated)
experimental-endpoint: cleaved RNA product abundance
Number, no unit, nothing else.

[
  {
    "construct-sequence": "CGACATGTCCCGCTTCTTTCATTAATACGTTAGCAACTGTTTTGCTATATCCATTTACCTTTTAAGAGGAGGAAT",
    "cleaved RNA product abundance": 0.193
  },
  {
    "construct-sequence": "CGACATGTCCCGCTTCTTTCATTATTCCGTTAGCGACTGTTTTGCTATATACATTTACCTTTTAAGAGGAGGAAT",
    "cleaved RNA product abundance": 0.759
  },
  {
    "construct-sequence": "CGACATGTCCCGCTTCTTTCATTAATCCGTTAGCAACTGATTTGCAATATACATTTACCTTTTAAGAGGAGGAAT",
    "cleaved RNA product abundance": 0.49
  }
]

# ---- query sequence ----
What measured cleaved RNA product abundance is associated with CGACATGTCCCGCTTCTTTCATTAATCCCTTAGCAACTGTTTTCCTATATACATTTACCTTTTAAGAGGAGGAAT on Bacillus subtilis?
0.214
